Reference source for all entries: patent US9815851B2

- measured-on: RORγ (UniProt P51449)
- method: RORγ Gal4 Reporter Gene Assay in 293T cells (firefly and renilla luciferase)
- Assay type: cell-based, human
- condition-summary: third value of the cell; Gal4 reporter gene assay in 293T cells, renilla normalised luciferase
Documented pIC50 (REN) across a set of compounds

structure-smiles-string | measured-on | pIC50 (REN)
Cc1c(C(=O)NC2CCOCC2)cc(-c2ccc(S(=O)(=O)NC(C)(C)C)c(C(C)C)c2)n1CC1CCCCC1 | RORγ (UniProt P51449) | 8.2
Cc1c(C(=O)NC2CCOCC2)cc(-c2ccc(S(=O)(=O)NC(C)(C)C)cc2)n1CC1CCCCC1 | RORγ (UniProt P51449) | 6.5
Cc1c(C(=O)NCC(C)(C)c2nn[nH]n2)cc(-c2cc(C(C)(C)C)cc(C3(C)CC3)c2)n1CC1CCCCC1 | RORγ (UniProt P51449) | 8.1
Cc1c(C(=O)NCC(C)(C)C(=O)O)cc(-c2ccc(S(=O)(=O)NC(C)(C)C)c(C(F)F)c2)n1CC1CCCCC1 | RORγ (UniProt P51449) | 7.2

* * *

- measured-on: RORγ ligand binding domain (LBD) (Homo sapiens)
- Construct: made in house; host or cells: E. coli BL-21 (BL3), vector pDEST15
- method: TR-FRET Activity Assay (ligand sensing, RORγ-LBD / coactivator peptide interaction, LANCE)
- Type: biochemical
pIC50: −log10 of the molar value.

compound | pIC50
Cc1c(C(=O)NCCS(N)(=O)=O)cc(-c2cc(C(C)(C)C)cc(C(C)(C)C)c2)n1CC1CCCCC1 [1/9] | 6.50
Cc1c(C(=O)NCCCCN2CCOCC2)cc(-c2cc(C(C)(C)C)cc(C(C)(C)C)c2)n1CC1CCCCC1 [1/74] | 5.30
Cc1c(C(=O)NCC(C)(C)C(=O)NCCO)cc(-c2cc(C(C)(C)C)c3c(c2)C2(CCO3)CC2)n1CC1CCCCC1 [11/5] | 6.50
CC(=O)c1cc(-c2cc(C(=O)NC3CCOCC3)c(C)n2CC2CCCCC2)cc(C(C)(C)C)c1 [17/103] | 6.10
Cc1c(C(=O)NCC(C)(C)c2nnn[nH]2)cc(-c2cc(C(C)(C)O)cc(C3(C)CC3)c2)n1CC1CCCCC1 [17/309] | 6.10
Cc1c(C(=O)NCC2CCOCC2)cc(-c2cc(C(C)(C)C)cc(C3(C)CC3)c2)n1CC1CCCCC1 [17/63] | 6.70

* * *

Documented IC50 across a set of compounds
- measured-on: RORγ ligand binding domain (LBD) (Homo sapiens, UniProt P51449)
- Construct: made in house; host or cells: E. coli BL-21 (BL3), vector pDEST15
- Sequence (P51449 269-508 limits assumed): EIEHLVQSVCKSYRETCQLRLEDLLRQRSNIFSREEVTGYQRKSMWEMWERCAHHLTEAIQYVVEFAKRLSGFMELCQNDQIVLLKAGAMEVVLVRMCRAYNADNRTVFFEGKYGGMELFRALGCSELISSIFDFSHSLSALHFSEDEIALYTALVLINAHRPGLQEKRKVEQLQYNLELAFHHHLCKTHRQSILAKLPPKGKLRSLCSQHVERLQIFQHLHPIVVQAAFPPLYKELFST
- method: TR-FRET Activity Assay (ligand sensing, RORγ-LBD / coactivator peptide interaction, LANCE)
- Format: biochemical
- condition-summary: first value of the cell FRET/FF/REN; TR-FRET activity assay; read-out: pIC50 (FRET) (converted)

compound | measured-on | endpoint-unit | IC50
Cc1c(C(=O)NC2CCOCC2)cc(-c2ccc(S(=O)(=O)NC(C)(C)C)c(C(F)(F)F)c2)n1[C@@H](C)C1CCCCC1 | RORγ ligand binding domain (LBD) (Homo sapiens, UniProt P51449) | nM | 631
CC(C)(C)NS(=O)(=O)c1ccc(-c2cc(C(=O)N[C@H]3C[C@H](C(=O)O)C3)c(Cl)n2CC2CCCCC2)c2ccccc12 | RORγ ligand binding domain (LBD) (Homo sapiens, UniProt P51449) | nM | 398
Cc1c(C(=O)NC2COC2)cc(-c2cc(C(C)(C)C)cc(C(C)(C)C)c2)n1CC1CCC(C)CC1 (stereo not shown) | RORγ ligand binding domain (LBD) (Homo sapiens, UniProt P51449) | nM | 251
Cc1c(C(=O)NCC(C)(C)c2nn[nH]n2)cc(-c2cc(C(C)(C)C)cc(C3(C)CC3)c2)n1CC1CCCCC1 | RORγ ligand binding domain (LBD) (Homo sapiens, UniProt P51449) | nM | 794
